# koff per entry
- assay-target: T1, human interleukin 12 (human, UniProt P29459 23-219; P29460 23-328)
- T1 construct: heterodimer of p35 and p40 linked by a disulfide bridge; also called hIL-12; IL-12
- T1 sequence (looked up) 1: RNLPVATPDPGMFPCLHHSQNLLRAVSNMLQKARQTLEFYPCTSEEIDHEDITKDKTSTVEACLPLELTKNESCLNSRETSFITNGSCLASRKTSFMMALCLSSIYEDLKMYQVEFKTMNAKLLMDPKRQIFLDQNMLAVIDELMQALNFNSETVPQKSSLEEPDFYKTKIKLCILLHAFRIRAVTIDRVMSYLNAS
- T1 sequence (looked up) 2: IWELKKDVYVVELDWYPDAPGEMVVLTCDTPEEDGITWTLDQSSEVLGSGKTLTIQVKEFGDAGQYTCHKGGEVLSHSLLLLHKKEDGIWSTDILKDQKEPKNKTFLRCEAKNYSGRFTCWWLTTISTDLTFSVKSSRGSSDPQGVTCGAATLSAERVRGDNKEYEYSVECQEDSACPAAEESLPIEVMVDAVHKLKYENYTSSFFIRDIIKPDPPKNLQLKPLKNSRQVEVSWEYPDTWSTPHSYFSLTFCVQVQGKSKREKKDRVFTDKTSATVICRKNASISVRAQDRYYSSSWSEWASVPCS
- assay-remarks: SPR (BIAcore)
measure-name: koff (s⁻¹)

{"columns": ["binder", "value"],
 "data": [
  ["M2 D4 (antibody, V domains shown) VH: QVQLVQSGGGVVQPGRSLRLSCAASGFTFSSYGMHWVRQAPGKGLEWVAFIRYDGSNKYYADSVKGRFTISRDNSKNTLYLQMKSLRAEDTAVYYCKTHGSHDNWGQGTMVTVSS VL: SYVLTQPPSVSGTPGQRVTISCSGGRSNIGSNTVKWYQQLPGTAPKLLIYGNDQRPSGVPDRFSGSKSGTSASLAITGVQAEDEADYYCQSYETSFTGSRVFGTGTKVTVLG", 0.0581],
  ["B6 (antibody, V domains shown) VH: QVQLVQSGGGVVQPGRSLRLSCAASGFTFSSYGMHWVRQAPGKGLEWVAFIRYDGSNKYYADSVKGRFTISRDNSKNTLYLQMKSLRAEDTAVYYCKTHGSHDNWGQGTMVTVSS VL: SYVLTQPPSVSGTPGQRVTISCSGGRSNIGSNTVKWYQQLPGTAPKLLIYGNDQRPSGVPDRFSGSKSGTSASLAITGVQAEDEADYYCQSYDSGSLRRILFGTGTKVTVL", 0.00758],
  ["M2 D6 (antibody, V domains shown) VH: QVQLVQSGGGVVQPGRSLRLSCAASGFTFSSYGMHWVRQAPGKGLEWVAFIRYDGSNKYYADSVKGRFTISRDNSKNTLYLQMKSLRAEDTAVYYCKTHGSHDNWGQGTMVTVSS VL: SYVLTQPPSVSGTPGQRVTISCSGGRSNIGSNTVKWYQQLPGTAPKLLIYGNDQRPSGVPDRFSGSKSGTSASLAITGVQAEDEADYYCQSYDSGFTASRVFGTGTKVTVLG", 0.0501],
  ["136-9 (antibody, V domains shown) VH: QVQLVQSGGGVVQPGRSLRLSCAASGFTFSSYGMHWVRQAPGKGLEWVAFIRYDGSNKYYADSVKGRFTISRDNSKNTLYLQMKSLRAEDTAVYYCTTHGSHDDWGQGTMVTVSS VL: SYVLTQPPSVSGTPGQRVTISCSGGRSNIGSNTVKWYQQLPGTAPKLLIYGNDQRPSGVPDRFSGSKSGTSASLAITGVQAEDEADYYCQTYDISESGSRVFGTGTKVTVL", 0.0032],
  ["M2 E6 (antibody, V domains shown) VH: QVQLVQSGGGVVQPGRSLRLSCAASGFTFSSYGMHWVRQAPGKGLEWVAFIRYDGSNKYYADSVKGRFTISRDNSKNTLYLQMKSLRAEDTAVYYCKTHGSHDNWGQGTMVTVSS VL: SYVLTQPPSVSGTPGQRVTISCSGGRSNIGSNTVKWYQQLPGTAPKLLIYGNDQRPSGVPDRFSGSKSGTSASLAITGVQAEDEADYYCQSYDTGFTKSRVFGTGTKVTVLG", 0.00977]
]}

Reference source: patent US20120219562A1
